# testSystem: Estrogen receptor (Homo sapiens)
# assayExplanation: ATG_ERa_TRANS: Attagene TRANS-FACTORIAL HepG2 Assay for human Estrogen Receptor alpha (ERa) (AID 2282970)
# experimentalConditions: HepG2 Attagene TRANS ERa GAL4 reporter, mRNA
Results filed as inconclusive are left out. Calls of active or inactive are those of the source. Rule for the calls: active = hit-call score of the fitted dose curve at least 0.9, where 1 is the maximum; inconclusive = response in the unintended direction; inactive = score below 0.9.
recordedEndpoint: outcome

Solved cases (6 shown):
>>> print(df.to_string())
                                   compound    result
0  CC(C)NCC(O)COc1ccc(CC(N)=O)cc1 (configuration not stated)  inactive
1  Nc1c(S(=O)(=O)O)cc(Br)c2c1C(=O)c1ccccc1C2=O  inactive
2              CC(C)CCCCCCc1ccc(OCCOCCO)cc1  inactive
3                    COC(=O)C=C(C)CCC=C(C)C  inactive
4                  O=[N+]([O-])c1cccc(Cl)c1  inactive
5  CC(C)(C)CC(C)(C)c1ccc(OCCOCC[N+](C)(C)Cc2ccccc2)cc1  inactive

Okay, next one:
Report outcome, nothing else, for this compound: O=CN1CCOCC1 inactive

Source listed as PubChem BioAssay (EPA / NIEHS).
